- target: GST
- assay: SPOT array
- setup_conditions: median of control spots 978
readout: SPOT intensity

- binder: "SHRLWLYAAPKRPKT"
  readout_number: 0
- binder: "PVLPPPRSPNRPTLS"
  readout_number: 1
- binder: "RTRRRPPPPPIPSTQ"
  readout_number: 1
- binder: "QPQRTAPKPPISAPR"
  readout_number: 0
- binder: "VQQDSLPKLPFRSWG"
  readout_number: 0

a. SPLGAPPPPPHKDHL
b. RHLKLVPSTPMDIPW
Compare reported SPOT intensity values for a and b . Which is lower? Kindly give the label for the entry you pick.
b
